B1: ADAMTS4 (parent)
chain: SFRKFRYGYNNVVTIPAGATHILV

variants of: B1; test: protein stability index of a GFP-peptide fusion (GPS, HEK-293T) (PSI 1-6); higher = more stable; details: c terminus: a fixed tail appended;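 also: lentivirally expressed fusions sorted by FACS into six bins by GFP to DsRed ratio, PSI derived from sequencing read proportions per bin multiplied by bin number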
Documented protein stability index across a set of variants
QUANTITY_NAME: protein stability index

• SFRKFRYGYNNVVTIPAGATYILV [H21Y] = 3.3
• SFRKFRYGYNNVVTIPAGATHIDV [L23D] = 1.78
• CFRKFRYGYNNVVTIPAGATHILV [S1C] = 2.8
• SFRKFRYGYNNVVTIPAEATHILV [G18E] = 2.63
• SFRKFRYVYNNVVTIPAGATHILV [G8V] = 2.24
• SFRKFRYGYNNVVTIPAGATEILV [H21E] = 3.28
• SDRKFRYGYNNVVTIPAGATHILV [F2D] = 2.13
• SFRKFRYGYNNVVTIPAGATHELV [I22E] = 2.53
• SFRKFRYGYNNVVTIPASATHILV [G18S] = 2.58
• SFRKFRYGYNNVVTIPAGATFILV [H21F] = 3.18
• SFRKFRVGYNNVVTIPAGATHILV [Y7V] = 2.81
• IFRKFRYGYNNVVTIPAGATHILV [S1I] = 2.62
• SFRKFRYGYNNVVTTPAGATHILV [I15T] = 2.26
• SFRKFRYGYNNVVTIPAMATHILV [G18M] = 1.54
• SFRKFRYGYNNVVTIHAGATHILV [P16H] = 2.4
• SFRKFRYGYNNVVTIPAGATHALV [I22A] = 1.74
• SFRKMRYGYNNVVTIPAGATHILV [F5M] = 3.23
• SFRKFRYGYNNVVTIPAGATGILV [H21G] = 2.48
• SFRKFRYGYNNVVTIPAGATHGLV [I22G] = 1.93
• SFRKFRYGYNNVVTIPAGATDILV [H21D] = 1.66
• SFRKFRYGYNNVVTIPAGATKILV [H21K] = 2.59
• SFRKFRYGYNNVVTIPAGATMILV [H21M] = 2.12
• SFRKFRYGYNNVVTIPAGATAILV [H21A] = 1.3
• SFRKFRYCYNNVVTIPAGATHILV [G8C] = 2.46
• SFRKFRPGYNNVVTIPAGATHILV [Y7P] = 2.83
• SFRKFRYGYNNVVTIPAGATHILT [V24T] = 1.44
• SRRKFRYGYNNVVTIPAGATHILV [F2R] = 2.18
• SFRKFRYGYRNVVTIPAGATHILV [N10R] = 2.36
• SFRKFRYGDNNVVTIPAGATHILV [Y9D] = 2.86
• SFRKFRYGYNNVVTIPAGATHILS [V24S] = 1.68
• SFRKFRYGYNNGVTIPAGATHILV [V12G] = 3.44
• SFRKFRYGYNNVSTIPAGATHILV [V13S] = 1.82
• SFRKFRYGYNNVVTIPAGATHISV [L23S] = 2.52
• SNRKFRYGYNNVVTIPAGATHILV [F2N] = 1.76
• SFRKFRYGYNNVVTIPAGATHQLV [I22Q] = 2.31
• SFYKFRYGYNNVVTIPAGATHILV [R3Y] = 2.37
• SFRKFRYGYNNVVTIPLGATHILV [A17L] = 2.31
• SFRKFRYYYNNVVTIPAGATHILV [G8Y] = 1.51
• SFRKFRYGYNNVVTIPCGATHILV [A17C] = 2.36
• SFRKFRAGYNNVVTIPAGATHILV [Y7A] = 3.52
• SFRKFRYGINNVVTIPAGATHILV [Y9I] = 2.46
• SFRKARYGYNNVVTIPAGATHILV [F5A] = 2.44
• SFRKFRYGYNNVVTIPAGATHIKV [L23K] = 2
• SFRKFRYGYNNVVTICAGATHILV [P16C] = 2.46
• SFRKFRYGYNNVVTIPAGATHICV [L23C] = 2.19
• SFRKFRYGYNNVVTIMAGATHILV [P16M] = 2.59
• SFRKFRYGYNNPVTIPAGATHILV [V12P] = 2.13
• SFRKFRYGYNNVVTSPAGATHILV [I15S] = 2.48
• SFRKFRYGYLNVVTIPAGATHILV [N10L] = 4.32
• SFRKFRYGYNNVVTIPAGATQILV [H21Q] = 2.85
• SFQKFRYGYNNVVTIPAGATHILV [R3Q] = 2.14
• SCRKFRYGYNNVVTIPAGATHILV [F2C] = 3.07
• SFRKFRYGYNNVVTIPAGATHILG [V24G] = 1.81
• SFRKFRYGYNNVVSIPAGATHILV [T14S] = 2.65
• SFRKFRYGYNNVVTIKAGATHILV [P16K] = 2.19
• SGRKFRYGYNNVVTIPAGATHILV [F2G] = 2.97
• SFRKFRYGYNNVVTIPAGAWHILV [T20W] = 2.38
• SFRKFRYGYNNVVTIPAGDTHILV [A19D] = 3.22
• SFRKFRYLYNNVVTIPAGATHILV [G8L] = 2.38
• SFRKFRYGYPNVVTIPAGATHILV [N10P] = 1.86
• KFRKFRYGYNNVVTIPAGATHILV [S1K] = 2.07
• SFRKFMYGYNNVVTIPAGATHILV [R6M] = 3.49
• SFRKFRYGYNNVETIPAGATHILV [V13E] = 2.73
• SFRKFRYGYNNYVTIPAGATHILV [V12Y] = 2.88
• SFHKFRYGYNNVVTIPAGATHILV [R3H] = 1.76
• SFRKFRYGYNNVVTIPAGATHIQV [L23Q] = 1.37
• SFRKFRYGYNNVVTIPIGATHILV [A17I] = 1.86
• SFRKFRYGYNNVGTIPAGATHILV [V13G] = 2.1
• SFRKFRYGNNNVVTIPAGATHILV [Y9N] = 2.14
